tested system: Estrogen receptor (Homo sapiens, UniProt P03372)
method notes: Displacement of fluorescent estrogen ligand from recombinant human ERalpha expressed in insect cells incubated for 2 hrs by polarization
Recorded pIC50 by entry
Give only the number. pIC50 is defined as minus log10 of concentration in molar units.

O=c1oc2cc(O)ccc2c(Nc2ccc(OCCN3CCCCC3)cc2)c1-c1ccc(O)cc1
5.42

Could you tell me which pIC50 is on file for CN(C)CCOc1ccc(Oc2c(-c3ccc(O)cc3)c(=O)oc3cc(O)ccc23)cc1 ? 5.07

====

tested system: UniProt:P35968
Sequence (P35968 whole entry): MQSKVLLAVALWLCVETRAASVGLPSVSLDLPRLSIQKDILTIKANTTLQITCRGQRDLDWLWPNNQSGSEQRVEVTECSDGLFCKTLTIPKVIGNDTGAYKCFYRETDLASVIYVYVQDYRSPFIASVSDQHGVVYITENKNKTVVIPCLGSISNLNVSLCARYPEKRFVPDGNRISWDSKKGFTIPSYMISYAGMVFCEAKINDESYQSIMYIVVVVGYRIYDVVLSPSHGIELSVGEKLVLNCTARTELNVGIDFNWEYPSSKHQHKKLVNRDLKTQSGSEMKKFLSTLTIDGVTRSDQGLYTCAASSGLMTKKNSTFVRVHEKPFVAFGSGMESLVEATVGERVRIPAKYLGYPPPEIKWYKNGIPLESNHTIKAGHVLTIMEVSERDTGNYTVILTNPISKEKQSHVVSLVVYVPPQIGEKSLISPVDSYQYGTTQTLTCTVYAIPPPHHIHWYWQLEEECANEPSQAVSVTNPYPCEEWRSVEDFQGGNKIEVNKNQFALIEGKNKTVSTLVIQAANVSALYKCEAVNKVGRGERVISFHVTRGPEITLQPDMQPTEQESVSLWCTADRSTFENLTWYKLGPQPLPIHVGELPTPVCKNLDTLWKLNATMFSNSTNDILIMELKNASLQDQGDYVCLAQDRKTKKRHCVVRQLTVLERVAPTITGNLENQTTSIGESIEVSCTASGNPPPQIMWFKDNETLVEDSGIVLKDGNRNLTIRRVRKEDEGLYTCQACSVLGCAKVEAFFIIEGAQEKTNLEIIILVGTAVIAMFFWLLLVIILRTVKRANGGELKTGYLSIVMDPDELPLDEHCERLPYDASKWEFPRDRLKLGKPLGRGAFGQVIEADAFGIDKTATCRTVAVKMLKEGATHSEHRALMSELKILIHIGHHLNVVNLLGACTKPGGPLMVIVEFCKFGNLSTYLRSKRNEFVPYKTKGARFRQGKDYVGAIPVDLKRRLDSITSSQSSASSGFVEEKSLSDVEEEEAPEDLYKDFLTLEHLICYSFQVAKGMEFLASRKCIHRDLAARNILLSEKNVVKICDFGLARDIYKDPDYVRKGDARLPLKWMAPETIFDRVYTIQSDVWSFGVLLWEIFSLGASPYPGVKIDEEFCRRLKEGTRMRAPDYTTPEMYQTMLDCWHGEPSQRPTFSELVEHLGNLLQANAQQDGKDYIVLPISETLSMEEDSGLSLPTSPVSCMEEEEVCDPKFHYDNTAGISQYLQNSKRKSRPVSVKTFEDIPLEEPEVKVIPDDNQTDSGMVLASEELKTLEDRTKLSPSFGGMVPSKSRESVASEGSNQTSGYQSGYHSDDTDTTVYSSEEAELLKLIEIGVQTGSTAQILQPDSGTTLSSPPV
method notes: Inhibition of His-tagged human VEGFR2 at 40 uM incubated for 1 hr by HTRF assay
inhibition of 70% or higher: Criterion met. Under 70%: Criterion not met.

COc1cc2/c(=N/c3ccc(Br)cc3F)nc[nH]c2cc1OCC1CCN(C)CC1 [VANDETANIB]
Criterion met
COc1ccc2c(Oc3ccc(OCCN4CCCCC4)cc3)c(-c3ccc(F)cc3)c(=O)oc2c1
Criterion not met
O=c1oc2cc(O)ccc2c(Nc2ccc(OCCN3CCCCC3)cc2)c1-c1ccc(F)cc1
Criterion met
COc1ccc(-c2c(Nc3ccc(OCCN4CCCCC4)cc3)c3ccc(O)cc3oc2=O)cc1
Criterion not met
O=c1oc2cc(O)ccc2c(Oc2ccc(OCCN3CCCCC3)cc2)c1-c1ccc(O)cc1
Criterion not met
O=c1oc2cc(O)ccc2c(Nc2ccc(OCCN3CCCCC3)cc2)c1-c1ccc(O)cc1
Criterion met
COc1ccc(-c2c(Oc3ccc(OCCN4CCCCC4)cc3)c3ccc(OC)cc3oc2=O)cc1
Criterion not met
O=c1oc2cc(O)ccc2c(Oc2ccc(OCCN3CCCCC3)cc2)c1-c1ccc(F)cc1
Criterion met
COc1ccc2c(Nc3ccc(OCCN4CCCCC4)cc3)c(-c3ccc(F)cc3)c(=O)oc2c1
Criterion not met

Form field: inhibition at least 70%? Entry: O=c1oc2ccccc2c(Nc2ccc(OCCN3CCCCC3)cc2)c1-c1ccc(F)cc1 Criterion not met

====

Recorded pIC50 by entry
tested system: Estrogen receptor (Homo sapiens)
Sequence (P03372 whole entry): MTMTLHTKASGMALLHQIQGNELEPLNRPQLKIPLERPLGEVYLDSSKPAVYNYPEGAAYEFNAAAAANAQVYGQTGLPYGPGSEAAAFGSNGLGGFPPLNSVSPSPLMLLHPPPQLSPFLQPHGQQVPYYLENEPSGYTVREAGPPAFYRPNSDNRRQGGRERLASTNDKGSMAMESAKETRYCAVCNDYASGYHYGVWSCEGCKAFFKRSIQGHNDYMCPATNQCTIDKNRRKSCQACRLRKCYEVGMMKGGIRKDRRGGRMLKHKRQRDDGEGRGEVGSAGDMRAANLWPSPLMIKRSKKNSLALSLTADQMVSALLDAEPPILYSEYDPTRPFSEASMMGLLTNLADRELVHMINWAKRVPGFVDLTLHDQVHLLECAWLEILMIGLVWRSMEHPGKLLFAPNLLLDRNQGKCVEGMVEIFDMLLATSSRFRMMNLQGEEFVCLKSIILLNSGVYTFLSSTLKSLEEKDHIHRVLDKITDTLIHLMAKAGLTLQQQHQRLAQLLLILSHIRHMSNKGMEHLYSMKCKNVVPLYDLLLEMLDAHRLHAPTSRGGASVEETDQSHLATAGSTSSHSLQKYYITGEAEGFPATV
method notes: Displacement of fluorescent estrogen ligand from recombinant human ERalpha expressed in insect cells incubated for 2 hrs by polarization
Give only the number. pIC50 is defined as minus log10 of concentration in molar units.

O=c1oc2cc(O)ccc2c(Nc2ccc(OCCN3CCCC3)cc2)c1-c1ccc(O)cc1
5.19
O=c1oc2cc(O)ccc2c(Oc2ccc(OCCN3CCCCC3)cc2)c1-c1ccc(F)cc1
5.66
O=c1oc2cc(O)ccc2c(Oc2ccc(OCCN3CCCCC3)cc2)c1-c1ccc(O)cc1
5.58
CN(C)CCOc1ccc(Nc2c(-c3ccc(F)cc3)c(=O)oc3cc(O)ccc23)cc1
5.18

Could you tell me which pIC50 is on file for COc1ccc(-c2c(Nc3ccc(OCCN4CCCCC4)cc3)c3ccc(O)cc3oc2=O)cc1 ? 5.18

Could you tell me which pIC50 is on file for CCN(CC)CCOc1ccc(Oc2c(-c3ccc(F)cc3)c(=O)oc3cc(O)ccc23)cc1 ? 5.45

Could you tell me which pIC50 is on file for COc1ccc2c(Nc3ccc(OCCN4CCCCC4)cc3)c(-c3ccc(F)cc3)c(=O)oc2c1 ? 5.10

Could you tell me which pIC50 is on file for O=c1oc2ccccc2c(Nc2ccc(OCCN3CCCCC3)cc2)c1-c1ccc(F)cc1 ? 5.11

Could you tell me which pIC50 is on file for CCN(CC)CCOc1ccc(Nc2c(-c3ccc(O)cc3)c(=O)oc3cc(O)ccc23)cc1 ? 5.22

Could you tell me which pIC50 is on file for O=c1oc2cc(O)ccc2c(Oc2ccc(OCCN3CCCC3)cc2)c1-c1ccc(O)cc1 ? 5.16

Could you tell me which pIC50 is on file for O=c1oc2cc(O)ccc2c(Oc2ccc(OCCN3CCCC3)cc2)c1-c1ccc(F)cc1 ? 5.37

Could you tell me which pIC50 is on file for COc1ccc2c(Oc3ccc(OCCN(C)C)cc3)c(-c3ccc(F)cc3)c(=O)oc2c1 ? 5.05

====

tested system: UniProt:P03372
method notes: Displacement of fluorescent estrogen ligand from recombinant human ERalpha expressed in insect cells incubated for 2 hrs by polarization
readout: IC50

CCN(CC)CCOc1ccc(Oc2c(-c3ccc(F)cc3)c(=O)oc3cc(OC)ccc23)cc1
> 10 µM
COc1ccc(-c2c(Oc3ccc(OCCN(C)C)cc3)c3ccc(OC)cc3oc2=O)cc1
> 10 µM

We now examine a further compound.
Could you tell me which IC50 is on file for COc1ccc(-c2c(Oc3ccc(OCCN4CCCC4)cc3)c3ccc(OC)cc3oc2=O)cc1 ? > 10 µM
